Where these numbers come from: the RepoRT retention time repository

# ASSAY_EXPLANATION: HILIC, Merck SeQuant ZIC-HILIC, 25 °C, 0.25 mL/min; A: water + 16 mM ammonium formate; B: acetonitrile + 0.1% formic acid, pH 3; gradient (min/%B) 0/97 2/97 10/70 15/10 17/10 18/97 25/97
# CONDITION_SET: stereoisomer not certain
LC retention time under 2 min gets yes (1), anything at or over 2 min gets no (0).

NC(CCSSCCC(N)C(=O)O)C(=O)O (stereo not drawn) : no (0)

Enquiry: Please state whether LC retention time is below 2 min for NC(CCS)C(=O)O (stereo not drawn)
Return: no (0)

Enquiry: Please state whether LC retention time is below 2 min for CSCCC(NC(C)=O)C(=O)O (stereo not drawn)
Return: no (0)

* * *

# ASSAY_EXPLANATION: HILIC, Merck SeQuant ZIC-HILIC, 25 °C, 0.25 mL/min; A: water + 16 mM ammonium formate; B: acetonitrile + 0.1% formic acid, pH 3; gradient (min/%B) 0/97 2/97 10/70 15/10 17/10 18/97 25/97
# CONDITION_SET: stereoisomer not certain
Where a name gives a salt, the structure may show the parent alone.
Parameter threshold = 2 min. Response is TRUE when LC retention time meets or exceeds it, else FALSE.

Use these answered entries as a reference point.
O=C(O)C1OC(OP(=O)(O)OP(=O)(O)OCC2OC(n3ccc(=O)[nH]c3=O)C(O)C2O)C(O)C(O)C1O (centres undefined) [URIDINE DIPHOSPHATE GLUCURONIC ACID] : TRUE
CC(=O)NC(CSSCC(NC(C)=O)C(=O)O)C(=O)O (centres undefined) [N-ACETYLCYSTEINE-dimere] : TRUE
O=CC(O)CO (centres undefined) [GLYCERALDEHYDE] : TRUE
NCCOP(=O)(O)O [ETHANOLAMINE PHOSPHATE] : TRUE
CC12CCC3c4ccc(O)cc4CCC3C1CCC2O (stereo not drawn) [ESTRADIOL-17ALPHA] : FALSE

Enquiry: Is reported LC retention time greater than or equal to 2 min here: Cc1cc2nc3c(=O)[nH]c(=O)nc-3n(CC(O)C(O)C(O)COP(=O)(O)OP(=O)(O)OCC3OC(n4cnc5c(N)ncnc54)C(O)C3O)c2cc1C (centres undefined) [FAD]
Return: TRUE

Enquiry: Is reported LC retention time greater than or equal to 2 min here: CC(=O)C(=O)O [pyruvic acid]
Return: TRUE

Enquiry: Is reported LC retention time greater than or equal to 2 min here: c1ccc(CNc2ccccc2)cc1 [N-benzylaniline]
Return: FALSE

Enquiry: Is reported LC retention time greater than or equal to 2 min here: NCC[Se][Se]CCN [SELENOCYSTAMINE]
Return: TRUE

Enquiry: Is reported LC retention time greater than or equal to 2 min here: CC12CCC(=O)C=C1CCC1C2C(O)CC2(C)C(C(=O)CO)CCC12 (centres undefined) [CORTICOSTERONE]
Return: FALSE

Enquiry: Is reported LC retention time greater than or equal to 2 min here: Nc1nc2c(ncn2C2CC(O)C(COP(=O)(O)O)O2)c(=O)[nH]1 (centres undefined) [dGMP sodium salt hydrate]
Return: TRUE

Enquiry: Is reported LC retention time greater than or equal to 2 min here: CC(=O)OCC(N)C(=O)O (centres undefined) [O-ACETYLSERINE]
Return: TRUE

Enquiry: Is reported LC retention time greater than or equal to 2 min here: O=C(O)c1ccccc1O [SALICYLATE]
Return: FALSE

Enquiry: Is reported LC retention time greater than or equal to 2 min here: CC(O)(CC(=O)O)CC(=O)O [3-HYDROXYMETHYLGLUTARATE]
Return: TRUE

Enquiry: Is reported LC retention time greater than or equal to 2 min here: O=CC(O)C1OC(=O)C(O)C1O [D-GLUCURONOLACTONE]
Return: TRUE

Enquiry: Is reported LC retention time greater than or equal to 2 min here: OCC(O)c1ccc(O)c(O)c1 (centres undefined) [3-4-DIHYDROXYPHENYLGLYCOL]
Return: TRUE

Enquiry: Is reported LC retention time greater than or equal to 2 min here: CCCCCCCCCCCCCCCCCC(=O)O [STEARATE]
Return: FALSE

Enquiry: Is reported LC retention time greater than or equal to 2 min here: CCCCCCCCCCCCCC(=O)OC(CO)COP(=O)(O)OCCN (centres undefined) [14-0_LysoPE]
Return: TRUE

Enquiry: Is reported LC retention time greater than or equal to 2 min here: O=C(O)c1ccc[nH]1 [PYRROLE-2-CARBOXYLATE]
Return: TRUE

Enquiry: Is reported LC retention time greater than or equal to 2 min here: NC(=O)c1ccc[n+](C2OC(COP(=O)(O)OP(=O)(O)OCC3OC(n4cnc5c(N)ncnc54)C(O)C3O)C(O)C2O)c1 (stereo not drawn) [BETA-NICOTINAMIDE ADENINE DINUCLEOTIDE]
Return: TRUE

* * *

# ASSAY_EXPLANATION: HILIC, Merck SeQuant ZIC-HILIC, 25 °C, 0.25 mL/min; A: water + 16 mM ammonium formate; B: acetonitrile + 0.1% formic acid, pH 3; gradient (min/%B) 0/97 2/97 10/70 15/10 17/10 18/97 25/97
# CONDITION_SET: stereoisomer not certain
Counter-ions that a name gives are not always drawn.
QUANTITY_MEASURED: LC retention time (min)
Hi! Could you send only the number? It should be in min, unit omitted.

CC(=O)C1CCC2C3CC=C4CC(OS(=O)(=O)O)CCC4(C)C3CCC12C (stereo not given) [pregnenolone sulfate] : 2.05
OCc1ccccc1O [2-Hydroxybenzyl alcohol ( Salicyl alcohol- Saligenin)] : 1.95
CC(=O)NC(Cc1ccccc1)C(=O)O (stereo not given) : 1.95
O=C(O)/C=C/c1c[nH]c2ccccc12 [trans-3-indoleacrylic acid] : 2.04
CC(CC(=O)O)C(=O)O (stereo not given) : 2.18
NC(=O)c1ccccc1O [SALICYLAMIDE] : 1.74
NC(CCSCC(N)C(=O)O)C(=O)O (stereo not given) : 15.4
O=c1ccn(C2OC(COP(=O)(O)O)C(O)C2O)c(=O)[nH]1 (stereo not given) [URIDINE MONOPHOSPHATE] : 13.9
CCCCCCCCCCCCCC(=O)OCC(O)CO (stereo not given) [GLYCEROL-MYRISTATE] : 1.64

Here's the next entry for you.
Enquiry: Specify measured LC retention time for O=C(C=Cc1ccc(O)c(O)c1)OC(Cc1ccc(O)c(O)c1)C(=O)O (stereo not given) [ROSMARINATE] .
Return: 8.82

* * *

# ASSAY_EXPLANATION: HILIC, Merck SeQuant ZIC-HILIC, 25 °C, 0.25 mL/min; A: water + 16 mM ammonium formate; B: acetonitrile + 0.1% formic acid, pH 3; gradient (min/%B) 0/97 2/97 10/70 15/10 17/10 18/97 25/97
# CONDITION_SET: stereoisomer not certain
QUANTITY_MEASURED: log10 LC retention time (log10 of the value in min)
Values below are the log10 of the recorded LC retention time, with min as the unit.

As a guide, the following entries are already answered.
CC1NCCc2cc(O)c(O)cc21 (configuration not stated) : 1.05
NCCc1cnc[nH]1 : 1.23

Enquiry: Specify measured log10 LC retention time for Nc1ccc(C(=O)O)cc1 [4-AMINOBENZOATE] .
Return: 0.33

Enquiry: Specify measured log10 LC retention time for O=C(O)Cc1cccc(O)c1 [3-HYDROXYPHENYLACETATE] .
Return: 0.33

Enquiry: Specify measured log10 LC retention time for CC(O)C(=O)O (configuration not stated) [LACTATE] .
Return: 0.44

Enquiry: Specify measured log10 LC retention time for CC1C(=O)Nc2ccccc21 (configuration not stated) .
Return: 0.24

* * *

# ASSAY_EXPLANATION: HILIC, Merck SeQuant ZIC-HILIC, 25 °C, 0.25 mL/min; A: water + 16 mM ammonium formate; B: acetonitrile + 0.1% formic acid, pH 3; gradient (min/%B) 0/97 2/97 10/70 15/10 17/10 18/97 25/97
# CONDITION_SET: stereoisomer not certain
QUANTITY_MEASURED: LC retention time (min)
Hi! Could you send only the number? It should be in min, unit omitted.

As a guide, the following entries are already answered.
O=C(O)CCCCC1CCSS1 (racemic) : 1.66
Nc1ncnc2c1ncn2C1CC(O)C(COP(=O)(O)OP(=O)(O)O)O1 (stereo not given) [2'-DEOXYADENOSINE 5'-DIPHOSPHATE] : 14.6

Enquiry: Specify measured LC retention time for Cc1cn(C2CC(O)C(CO)O2)c(=O)[nH]c1=O (stereo not given) .
Return: 2.17

Enquiry: Specify measured LC retention time for O=C(O)CC(O)C(=O)O (stereo not given) [MALATE] .
Return: 8.89

Enquiry: Specify measured LC retention time for O=C(O)c1cc(=O)c2ccccc2[nH]1 .
Return: 9.58
